Cited source: the supplement of paper PMC11451515

Test system: SEM cells
Test: cell viability relative to DMSO control; higher = less cytotoxic
Condition Set: RPMI 5 mM glucose + 10% dialyzed FBS; 48 h; 46.1 µM
Consider the following compounds; for each one, report its cell viability.
The answer consists of two parts: a number and, after it, its unit.

What cell viability appears in the records for this compound with SEM cells? COc1cc(CCc2cc(NC(=O)c3ccc(N4C[C@@H](C)N[C@@H](C)C4)cc3)n[nH]2)cc(OC)c1
18.5%

What cell viability appears in the records for this compound with SEM cells? Cc1cc(OCCC[S+](C)(=O)[O-])cc(C)c1-c1cccc(COc2ccc3c(c2)OC[C@H]3CC(=O)O)c1
65%

What cell viability appears in the records for this compound with SEM cells? CCN(CC)CCOc1ccc(Cc2ccccc2)cc1
16.9%

What cell viability appears in the records for this compound with SEM cells? c1ccc2c(Cc3c[nH]c4ccccc34)c[nH]c2c1
15.8%

What cell viability appears in the records for this compound with SEM cells? Cc1ccc([N+](=O)[O-])cc1[S+](=O)([O-])N(C)/N=C/c1cnc2ccc(Br)cn12
3.83%

What cell viability appears in the records for this compound with SEM cells? OC[C@H]1O[C@H](C[C@@H]1O)N2\C=C(F)/C(=O)NC2=O
10.8%

What cell viability appears in the records for this compound with SEM cells? Cc1ccccc1C(OCCN(C)C)c1ccccc1 (stereo not given)
114%

What cell viability appears in the records for this compound with SEM cells? CO[C@@]12[C@H](COC(N)=O)C/3=C(N1C[C@@H]4N[C@H]24)/C(=O)/C(=C(N)\C3=O)C
85.3%

What cell viability appears in the records for this compound with SEM cells? C/C(=N\NC(=S)N1CCC1)c1ccccn1
2.93%

What cell viability appears in the records for this compound with SEM cells? CCn1c(-c2nonc2N)nc2c(C#CC(C)(C)O)ncc(OC[C@H]3CCCNC3)c21
14.1%
